FYI, the data here is from paper PMC10397247.

Target: T1, P6-AA-1HAA-T
T1 chain: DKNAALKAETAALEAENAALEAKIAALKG
Experiment: two-hybrid library CCmax;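 note: natural log of median RNA to DNA barcode read ratio; higher means stronger binding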
Conditions: mean of both orientations
measurement-name: interaction score
Write the value as a bare number.

So, DENAALEAKDAALKAKNAALKAEIAALEG [P5-AA-1HAA-D] ? Its interaction score was -1.02

So, DENAALEAKYAALKAKNAALKAEIAALEG [P5-AA-1HAA-Y] ? Its interaction score was 1.28

So, DENAALEAKTAALKAKNAALKAEIAALEG [P5-AA-1HAA-T] ? Its interaction score was 0.456

So, DENAALEAKKAALKAKNAALKAEIAALEG [P5-AA-1HAA-K] ? Its interaction score was 1.53
